- Tested on: Influenza A virus
- ASSAY OVERVIEW: Antiviral activity against Influenza A virus A/WSN/33(H1N1) infected in HEK293T cells pretreated for 2 hrs followed by viral infection and measured after 24 hrs by Gaussia luciferase assay
- Format: functional, organism-based
- CONDITION LABEL: HEK-293T
Listed here: items and their measured EC50.
QUANTITY NAME: EC50

[[record]]
mol = "C/C=C1\\NC(=O)[C@@H](C)NC(=O)CNC(=O)[C@](C)(C(C)=O)NC(=O)[C@H](Cc2c[nH]c3cccc(OC)c23)NC(=O)c2csc(n2)[C@@H](C)NC(=O)CNC1=O"
measured_value = "> 50 µM"

[[record]]
mol = "C/C=C1\\NC(=O)[C@@H](C)NC(=O)CNC(=O)[C@@H](CC)NC(=O)[C@H](Cc2c[nH]c3cccc(OC)c23)NC(=O)c2csc(n2)[C@@H](C)NC(=O)CN(C)C1=O"
measured_value = "> 50 µM"

[[record]]
mol = "C/C=C1\\NC(=O)[C@@H](CC)NC(=O)CNC(=O)[C@](C)(C(C)=O)NC(=O)[C@H](Cc2c[nH]c3cccc(OC)c23)NC(=O)c2csc(n2)[C@@H](C)NC(=O)CNC1=O"
measured_value = "> 50 µM"

